Biological target: UniProt P25101
Sequence (P25101 whole entry, looked up): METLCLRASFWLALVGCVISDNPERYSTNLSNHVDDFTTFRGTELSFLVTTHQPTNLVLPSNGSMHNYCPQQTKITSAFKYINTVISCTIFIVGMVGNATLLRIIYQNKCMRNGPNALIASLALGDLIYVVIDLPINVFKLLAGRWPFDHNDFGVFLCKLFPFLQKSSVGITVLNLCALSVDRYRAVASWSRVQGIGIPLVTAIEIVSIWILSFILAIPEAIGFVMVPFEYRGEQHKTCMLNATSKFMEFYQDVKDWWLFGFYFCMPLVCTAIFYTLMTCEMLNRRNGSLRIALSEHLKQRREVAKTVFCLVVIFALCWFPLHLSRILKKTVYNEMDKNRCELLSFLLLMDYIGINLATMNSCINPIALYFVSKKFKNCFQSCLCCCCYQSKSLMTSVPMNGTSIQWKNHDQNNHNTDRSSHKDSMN
Assay: Selectivity towards endothelin A receptor in human.
Listed here: items and their measured Selectivity.
value.type: Selectivity

compound.smiles: Cc1cc(C)c(NC(=O)c2sccc2S(=O)(=O)Nc2onc(C)c2C)c(C#N)c1C
value.type: Selectivity
experimental.value: 328000
//
compound.smiles: Cc1cc(C)c(NC(=O)c2sccc2S(=O)(=O)Nc2onc(C)c2Cl)c(C(=O)C2CC2)c1
value.type: Selectivity
experimental.value: 331000
//
compound.smiles: Cc1cc(C)c(NC(=O)c2sccc2S(=O)(=O)Nc2onc(C)c2Cl)c(C(=O)c2ccccc2)c1
value.type: Selectivity
experimental.value: 46000
//
compound.smiles: Cc1cc(C)c(NC(=O)c2sccc2S(=O)(=O)Nc2onc(C)c2Cl)c(C(=O)CS(C)(=O)=O)c1
value.type: Selectivity
experimental.value: 66500
//
compound.smiles: Cc1cc(C)c(NC(=O)c2sccc2S(=O)(=O)Nc2onc(C)c2Cl)c(C)c1
value.type: Selectivity
experimental.value: 7000
//
compound.smiles: Cc1cc(C)c(NC(=O)c2sccc2S(=O)(=O)Nc2onc(C)c2Cl)c(-c2ncco2)c1
value.type: Selectivity
experimental.value: 119000
//
compound.smiles: Cc1cc(C)c(NC(=O)c2sccc2S(=O)(=O)Nc2onc(C)c2Cl)c(S(=O)(=O)C(C)C)c1
value.type: Selectivity
experimental.value: 8800

Reference for the values: ChEMBL document CHEMBL1148449
